target: Orexin receptor type 2 (Homo sapiens); experiment: Agonist activity against human orexin 2 receptor; EC50; nM; format: functional
pEC50: −log10 of the molar value.
Classification field: enter 1.0 for pEC50 values not below 9, 0.0 for values below it.

H-MTLIGAGHNGSAQLLRQLRGQLGPPGSR-NH2: 1.0
H-MTLIGAAHNGSAQLLRALRGQLGPPGSR-NH2: 1.0
H-MALIGAAHNGSAQLLRQLRGQLGPPGSR-NH2: 0.0
H-MTLIGAAHNGSAQLLRQLRGALGPPGSR-NH2: 1.0
H-MTLIGAAHNGSAQLARQLRGQLGPPGSR-NH2: 1.0

Q: Please tell me: is the substance H-ATLIGAAHNGSAQLLRQLRGQLGPPGSR-NH2 at or over 9 in terms of pEC50?
Result: 0.0

Q: Please tell me: is the substance H-MTLIGAAHAGSAQLLRQLRGQLGPPGSR-NH2 at or over 9 in terms of pEC50?
Result: 0.0

Q: Please tell me: is the substance H-MTLIGAAHNGSAQLLRQLRGQLGPPGSA-NH2 at or over 9 in terms of pEC50?
Result: 1.0

====

Target: Orexin receptor type 2 (Homo sapiens)
Sequence (O43614 whole entry): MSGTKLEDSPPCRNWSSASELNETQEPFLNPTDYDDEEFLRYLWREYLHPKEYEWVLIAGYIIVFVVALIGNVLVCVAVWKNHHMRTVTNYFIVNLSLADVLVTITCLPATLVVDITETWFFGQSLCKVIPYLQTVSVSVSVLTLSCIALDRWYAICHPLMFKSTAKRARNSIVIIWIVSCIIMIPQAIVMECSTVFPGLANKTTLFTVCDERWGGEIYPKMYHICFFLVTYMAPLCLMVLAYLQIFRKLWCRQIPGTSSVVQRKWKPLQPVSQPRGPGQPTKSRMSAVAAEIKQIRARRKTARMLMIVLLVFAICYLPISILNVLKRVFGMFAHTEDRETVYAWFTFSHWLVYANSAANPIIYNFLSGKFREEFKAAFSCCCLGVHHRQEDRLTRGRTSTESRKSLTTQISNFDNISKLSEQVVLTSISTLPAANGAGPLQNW
Experiment: Agonist activity against human orexin 2 receptor; EC50; nM
Format: functional
EXPERIMENTAL READOUT: EC50 (nM)
Reply with just the number (in nM).

Below, each entry is followed by its recorded EC50 result.
H-MTLIGAAHNGSAALLRQLRGQLGPPGSR-NH2: 0.13
H-MTLIGAAHNGSAQLLRQWRGQLGPPGSR-NH2: 0.15
H-MTLIGAAHNGSGQLLRQLRGQLGPPGSR-NH2: 0.091
H-MTLIGAAHNGAAQLLRQLRGQLGPPGSR-NH2: 1.6
H-MTLIGAAHNGSAQLLRQLRGQLGPAGSR-NH2: 0.23
H-MTLIGAAHNGSAQLLRQLRGQLGPPGAR-NH2: 0.22
H-MTLIGAAHNGSAQALRQLRGQLGPPGSR-NH2: 2.2
H-MTLIGAAHNGSAQLLRQLRGQAGPPGSR-NH2: 0.12

// H-MTLIGAAHNGSAQLLAQLRGQLGPPGSR-NH2 : EC50 value = 0.13

// H-MTAIGAAHNGSAQLLRQLRGQLGPPGSR-NH2 : EC50 value = 140

====

target: Orexin receptor type 2 (Homo sapiens, UniProt O43614); test: Agonist activity against human orexin 2 receptor; EC50; nM; assay type: functional
EXPERIMENTAL READOUT: pEC50
Scale: negative log10 of molar concentration, which is what pEC50 denotes.

H-MTLIGAAANGSAQLLRQLRGQLGPPGSR-NH2: 9.14

// H-MTLIGAAHNGSAQLLRQSRGQLGPPGSR-NH2 : pEC50 value = 8.92

// H-MTLIGGAHNGSAQLLRQLRGQLGPPGSR-NH2 : pEC50 value = 9.08

// H-MTLIGAAHNGSAQLLRQLAGQLGPPGSR-NH2 : pEC50 value = 9.11
